tested on: rodent lifetime carcinogenesis bioassay, tumor incidence TD50; experiment: carcinogenic potency in animals, long-term in vivo studies, CPDB compilation (AID 1745844); details: rat; strain Fischer 344; males; in drinking water; site: nasal cavity; lesion: several types; types named in the paper; dosed 118 weeks; study length 128 weeks
metricName: TD50 (mg/kg/day)
Numbers only, in mg/kg/day.

**Query** Supply measured TD50 of CN(CCCC(=O)c1cccnc1)N=O in your reply.
**Result** 1.66

---

system: rodent lifetime carcinogenesis bioassay, tumor incidence TD50; experiment: carcinogenic potency in animals, long-term in vivo studies, CPDB compilation (AID 1745844); conditions: hamster; strain Syrian Golden; females; by gavage; site: lung; lesion: alveolar/bronchiolar adenoma; dosed 61 weeks; study length 106 weeks
metricName: TD50

**Query** Supply measured TD50 of CN(C)CCN(C)N=O in your reply.
**Result** 9.45 mg/kg/day
